# system.name: Adrenergic receptor alpha-2 (Homo sapiens, UniProt P08913+P18825+P18089)
# Sequence (P08913 whole entry): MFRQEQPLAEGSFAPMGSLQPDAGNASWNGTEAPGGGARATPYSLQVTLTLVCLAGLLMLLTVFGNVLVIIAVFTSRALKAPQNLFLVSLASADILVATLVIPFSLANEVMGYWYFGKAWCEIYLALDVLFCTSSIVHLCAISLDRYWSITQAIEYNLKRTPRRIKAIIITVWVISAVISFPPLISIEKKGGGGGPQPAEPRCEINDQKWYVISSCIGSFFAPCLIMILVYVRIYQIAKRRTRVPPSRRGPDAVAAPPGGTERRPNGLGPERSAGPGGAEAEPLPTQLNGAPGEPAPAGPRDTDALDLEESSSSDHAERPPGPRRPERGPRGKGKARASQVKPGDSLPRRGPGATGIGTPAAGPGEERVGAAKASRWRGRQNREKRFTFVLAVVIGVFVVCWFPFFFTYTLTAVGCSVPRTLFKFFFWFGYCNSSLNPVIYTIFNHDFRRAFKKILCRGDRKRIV
# Sequence (P18825 whole entry): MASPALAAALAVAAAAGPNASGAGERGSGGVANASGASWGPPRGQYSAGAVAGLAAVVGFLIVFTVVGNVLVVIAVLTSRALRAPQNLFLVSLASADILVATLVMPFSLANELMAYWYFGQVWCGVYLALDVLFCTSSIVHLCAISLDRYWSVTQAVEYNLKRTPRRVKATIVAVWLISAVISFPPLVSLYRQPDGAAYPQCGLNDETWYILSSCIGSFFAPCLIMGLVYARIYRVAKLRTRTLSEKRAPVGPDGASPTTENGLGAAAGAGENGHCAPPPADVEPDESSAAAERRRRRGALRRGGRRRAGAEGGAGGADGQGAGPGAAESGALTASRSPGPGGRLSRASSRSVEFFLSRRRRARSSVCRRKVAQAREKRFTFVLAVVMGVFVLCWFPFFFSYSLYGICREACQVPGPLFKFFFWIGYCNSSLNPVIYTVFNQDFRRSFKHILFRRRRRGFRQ
# Sequence (P18089 whole entry): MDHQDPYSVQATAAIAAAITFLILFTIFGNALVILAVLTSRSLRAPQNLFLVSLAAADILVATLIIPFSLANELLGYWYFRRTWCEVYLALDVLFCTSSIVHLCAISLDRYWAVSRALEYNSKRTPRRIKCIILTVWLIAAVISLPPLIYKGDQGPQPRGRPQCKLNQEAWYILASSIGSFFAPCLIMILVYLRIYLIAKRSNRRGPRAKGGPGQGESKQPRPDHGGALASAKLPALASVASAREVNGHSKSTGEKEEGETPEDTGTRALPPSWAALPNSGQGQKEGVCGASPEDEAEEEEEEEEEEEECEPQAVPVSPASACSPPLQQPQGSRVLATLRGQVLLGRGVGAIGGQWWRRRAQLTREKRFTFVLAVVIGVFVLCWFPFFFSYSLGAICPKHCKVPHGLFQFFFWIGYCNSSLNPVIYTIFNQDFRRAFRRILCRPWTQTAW
# experiment.description: Displacement of [3H]RX821002 from human alpha2 adrenoceptor expressed in CHO cell membranes after 60 mins
# Assay type: cell-based
Attribute: Ki

Study these solved cases before continuing.
Ask: Ki lookup needed for CC1CN/C(=N\c2cccc3c2CCC3)C1.Cl (centres undefined) , thanks.
Reply: > 10 µM

Ask: Ki lookup needed for CC1CN/C(=N\c2ccc(Cl)c3c2CCC3)C1.Cl (centres undefined) , thanks.
Reply: > 10 µM

Ask: Ki lookup needed for CC1CCC(Nc2ccc(I)cc2Cl)=N1 (centres undefined) , thanks.
Reply: > 2.5 µM

---
Ask: Ki lookup needed for CC1CC(NC(C2CC2)C2CC2)=NC1C (centres undefined) , thanks.
Reply: > 10 µM
